# METHOD_SUMMARY: The compound was tested for volume of distribution in rat at dose of 3-10 mgkg
# Type: ADME, organism-based
# REPORTED_CONDITIONS: in vivo
READOUT_LABEL: Vd (L/kg)
A number alone suffices; assume L/kg.

**Q:** Item `CCCCc1nc(Cl)c(CO)n1Cc1ccc2oc(-c3ccccc3-c3nn[nH]n3)c(Br)c2c1` has what recorded Vd?
**A:** 1.3

---

# METHOD_SUMMARY: The compound was tested for volume of distribution in dog at dose of 3-10 mgkg
# Assay type: ADME, organism-based, Canis lupus familiaris
# REPORTED_CONDITIONS: in vivo
Overview of recorded Vd for various compounds
I only need the number, in L/kg, no unit after it.

# annotated cases, reported Vd shown
COMPOUND | VALUE
CCCCc1nc(Cl)c(C(=O)NC)n1Cc1ccc2oc(-c3ccccc3-c3nn[nH]n3)c(Br)c2c1 | 0.3
CCCCc1nc(Cl)c(C(=O)O)n1Cc1ccc2oc(-c3ccccc3-c3nn[nH]n3)c(Br)c2c1 | 1.2
CCc1nc(C)c(C(=O)O)n1Cc1ccc2oc(-c3ccccc3-c3nn[nH]n3)c(Br)c2c1 | 2

**Q:** State the recorded Vd for this entry: `CCOC(=O)c1c(C)nc(CC)n1Cc1ccc2oc(-c3ccccc3-c3nn[nH]n3)c(Br)c2c1`
**A:** 2

---

# METHOD_SUMMARY: The compound was tested for volume of distribution in dog
# Type: ADME, organism-based, Canis lupus familiaris
# REPORTED_CONDITIONS: in vivo
READOUT_LABEL: Vd (L/kg)
Report only the number, with the unit L/kg understood.

**Q:** For `CCc1nc(C2CC2)c(C(N)=O)n1Cc1ccc2oc(-c3ccccc3NS(=O)(=O)C(F)(F)F)c(Br)c2c1` , what is its reported Vd?
**A:** 0.9

---

# METHOD_SUMMARY: Bioavailability in rat (dose 3-10 mg/kg)
# Format: ADME, organism-based
# REPORTED_CONDITIONS: in vivo
READOUT_LABEL: bioavailability (%)
Please respond with the number in % and leave the unit unwritten.

**Q:** Which bioavailability reading was recorded for the molecule `CCCCc1nc(Cl)c(CO)n1Cc1ccc2oc(-c3ccccc3-c3nn[nH]n3)c(Br)c2c1` ?
**A:** 37

---

# METHOD_SUMMARY: The compound was tested for plasma clearance in dog at dose of 3-10 mgkg
# Assay type: ADME, organism-based, Canis lupus familiaris
READOUT_LABEL: clearance (mL/min/kg)
Report the figure in mL/min/kg without appending any unit label.

COMPOUND | clearance [mL/min/kg]
CCc1nc(C)c(C(=O)O)n1Cc1ccc2oc(-c3ccccc3-c3nn[nH]n3)c(Br)c2c1 | 6
CCCCc1nc(Cl)c(C(=O)NC)n1Cc1ccc2oc(-c3ccccc3-c3nn[nH]n3)c(Br)c2c1 | 11

**Q:** Any idea what its clearance is? The compound is CCCCc1nc(Cl)c(C(=O)O)n1Cc1ccc2oc(-c3ccccc3-c3nn[nH]n3)c(Br)c2c1 [ZOLASARTAN]
**A:** 6

---

# METHOD_SUMMARY: The compound was tested for plasma clearance in dog
# Format: ADME, organism-based, Canis lupus familiaris
READOUT_LABEL: clearance (mL/min/kg)
State the answer as a number, implicitly in mL/min/kg.

**Q:** What value of clearance has been recorded for this entry: `CCc1nc(C2CC2)c(C(N)=O)n1Cc1ccc2oc(-c3ccccc3NS(=O)(=O)C(F)(F)F)c(Br)c2c1`
**A:** 1.6
